# System: M4 muscarinic receptor (Homo sapiens, UniProt P08173)
# Construct: expressed in transfected cells; host or cells: CHO cells (M4-CHO, under puromycin, zeocin and blasticidin selection)
# Sequence (P08173 1-479): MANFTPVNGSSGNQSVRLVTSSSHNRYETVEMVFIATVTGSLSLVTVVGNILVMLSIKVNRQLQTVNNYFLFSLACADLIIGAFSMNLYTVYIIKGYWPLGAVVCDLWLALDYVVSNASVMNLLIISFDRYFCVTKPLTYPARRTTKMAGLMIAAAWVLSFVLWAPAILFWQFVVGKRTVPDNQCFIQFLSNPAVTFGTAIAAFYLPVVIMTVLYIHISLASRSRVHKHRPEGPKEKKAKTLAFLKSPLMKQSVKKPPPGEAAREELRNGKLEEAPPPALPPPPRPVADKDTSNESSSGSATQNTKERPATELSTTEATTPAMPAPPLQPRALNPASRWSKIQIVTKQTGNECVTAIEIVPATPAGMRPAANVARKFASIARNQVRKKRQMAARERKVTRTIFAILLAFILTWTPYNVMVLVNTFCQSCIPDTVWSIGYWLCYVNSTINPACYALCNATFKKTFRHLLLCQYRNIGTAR
# Experiment Summary: Functional mobilization of intracellular calcium (FLIPR, Fluo-3), M4-CHO cells
# Assay type: cell-based
# Condition Parameters: compound nos. 1-454; 100% efficacy is the maximum response obtained with the Carbachol control; read-out: M4 Efficacy
Measure: Emax

{"columns": ["Compound", "Emax"],
 "data": [
  ["CCOC(=O)N1CCC(N2CCC3(CC2)CN(C(C)=O)c2c(F)cccc23)CC1 [compound 381]", "< 55%"],
  ["C#CCOC(=O)N1CCC(CN2CCC3(CC2)CN(C(C)=O)c2ccc(F)cc23)CC1 [compound 316]", "< 55%"]
]}

Tell me the measured Emax of Clc1ccc2c(c1)C1(CCN(C3CCCCC3)CC1)CO2 [compound 5] , please.
> 70%
